# reported Fold Increase over WT PD-L1 ECD-Fc; entries follow
- System Tested: human PD-1 stably expressed on Jurkat/IL-2 reporter cells (Jurkat/PD-1 cells) (human, UniProt Q15116 25-288)
- Sequence (Q15116 25-288): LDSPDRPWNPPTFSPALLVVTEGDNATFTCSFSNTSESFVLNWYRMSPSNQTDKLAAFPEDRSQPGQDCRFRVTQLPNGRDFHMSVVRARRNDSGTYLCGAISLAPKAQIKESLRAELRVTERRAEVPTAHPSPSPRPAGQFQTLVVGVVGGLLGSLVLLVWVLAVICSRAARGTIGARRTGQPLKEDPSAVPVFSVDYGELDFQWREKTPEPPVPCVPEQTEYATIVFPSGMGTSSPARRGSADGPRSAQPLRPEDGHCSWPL
- Test Method Notes: flow cytometry, Jurkat/PD-1 cells

Binder	Fold Increase over WT PD-L1 ECD-Fc, fold
variant PD-L1 ECD-Fc M41K, D43G, K44E, N45D, R195G, N201D (Fc fusion, not shown: a dimerising Fc or GST) FTVTVPKDLYVVEYGSNMTIECKFPVEKQLDLAALIVYWEKEGEDIIQFVHGEEDLKVQHSSYRQRARLLKDQLSLGNAALQITDVKLQDAGVYRCMISYGGADYKRITVKVNAPYNKINQRILVVDPVTSEHELTCQAEGYPKAEVIWTSSDHQVLSGKTTTTNSKREEKLFNVTSTLRINTTTNEIFYCTFRGLDPEEDHTAELVIPELPLAHPPNER	28.9
variant PD-L1 ECD-Fc N45D, E134G, L213P (Fc fusion, not shown: a dimerising Fc or GST) FTVTVPKDLYVVEYGSNMTIECKFPVEKQLDLAALIVYWEMEDKDIIQFVHGEEDLKVQHSSYRQRARLLKDQLSLGNAALQITDVKLQDAGVYRCMISYGGADYKRITVKVNAPYNKINQRILVVDPVTSEHGLTCQAEGYPKAEVIWTSSDHQVLSGKTTTTNSKREEKLFNVTSTLRINTTTNEIFYCTFRRLDPEENHTAELVIPELPPAHPPNER	0.5
variant PD-L1 ECD-Fc N45D, I148V, R195G, N201D (Fc fusion, not shown: a dimerising Fc or GST) FTVTVPKDLYVVEYGSNMTIECKFPVEKQLDLAALIVYWEMEDKDIIQFVHGEEDLKVQHSSYRQRARLLKDQLSLGNAALQITDVKLQDAGVYRCMISYGGADYKRITVKVNAPYNKINQRILVVDPVTSEHELTCQAEGYPKAEVVWTSSDHQVLSGKTTTTNSKREEKLFNVTSTLRINTTTNEIFYCTFRGLDPEEDHTAELVIPELPLAHPPNER	26.1
variant PD-L1 ECD-Fc I98T, F173Y, L196S (Fc fusion, not shown: a dimerising Fc or GST) FTVTVPKDLYVVEYGSNMTIECKFPVEKQLDLAALIVYWEMEDKNIIQFVHGEEDLKVQHSSYRQRARLLKDQLSLGNAALQITDVKLQDAGVYRCMTSYGGADYKRITVKVNAPYNKINQRILVVDPVTSEHELTCQAEGYPKAEVIWTSSDHQVLSGKTTTTNSKREEKLYNVTSTLRINTTTNEIFYCTFRRSDPEENHTAELVIPELPLAHPPNER	0
variant PD-L1 ECD-Fc K23N, N45D, S75P, N120S (Fc fusion, not shown: a dimerising Fc or GST) FTVTVPKDLYVVEYGSNMTIECNFPVEKQLDLAALIVYWEMEDKDIIQFVHGEEDLKVQHSSYRQRARLLKDQLPLGNAALQITDVKLQDAGVYRCMISYGGADYKRITVKVNAPYNKISQRILVVDPVTSEHELTCQAEGYPKAEVIWTSSDHQVLSGKTTTTNSKREEKLFNVTSTLRINTTTNEIFYCTFRRLDPEENHTAELVIPELPLAHPPNER	26.4
variant PD-L1 ECD-Fc K28E, N45D, W149R, S158G, P198T (Fc fusion, not shown: a dimerising Fc or GST) FTVTVPKDLYVVEYGSNMTIECKFPVEEQLDLAALIVYWEMEDKDIIQFVHGEEDLKVQHSSYRQRARLLKDQLSLGNAALQITDVKLQDAGVYRCMISYGGADYKRITVKVNAPYNKINQRILVVDPVTSEHELTCQAEGYPKAEVIRTSSDHQVLGGKTTTTNSKREEKLFNVTSTLRINTTTNEIFYCTFRRLDTEENHTAELVIPELPLAHPPNER	0.1
variant PD-L1 ECD-Fc N45D, I148V, R195G (Fc fusion, not shown: a dimerising Fc or GST) FTVTVPKDLYVVEYGSNMTIECKFPVEKQLDLAALIVYWEMEDKDIIQFVHGEEDLKVQHSSYRQRARLLKDQLSLGNAALQITDVKLQDAGVYRCMISYGGADYKRITVKVNAPYNKINQRILVVDPVTSEHELTCQAEGYPKAEVVWTSSDHQVLSGKTTTTNSKREEKLFNVTSTLRINTTTNEIFYCTFRGLDPEENHTAELVIPELPLAHPPNER	21.8
variant PD-L1 ECD-Fc N45D, G52V, Q121L, P198S (Fc fusion, not shown: a dimerising Fc or GST) FTVTVPKDLYVVEYGSNMTIECKFPVEKQLDLAALIVYWEMEDKDIIQFVHVEEDLKVQHSSYRQRARLLKDQLSLGNAALQITDVKLQDAGVYRCMISYGGADYKRITVKVNAPYNKINLRILVVDPVTSEHELTCQAEGYPKAEVIWTSSDHQVLSGKTTTTNSKREEKLFNVTSTLRINTTTNEIFYCTFRRLDSEENHTAELVIPELPLAHPPNER	0.1
